Attribution: paper PMC6013488

Provide the reported Curve Class of each item.
target or system: CDK9/cyclin K (Homo sapiens, UniProt P50750)
Construct: purchased Invitrogen (ThermoFisher) PV4335
Sequence (P50750 whole entry): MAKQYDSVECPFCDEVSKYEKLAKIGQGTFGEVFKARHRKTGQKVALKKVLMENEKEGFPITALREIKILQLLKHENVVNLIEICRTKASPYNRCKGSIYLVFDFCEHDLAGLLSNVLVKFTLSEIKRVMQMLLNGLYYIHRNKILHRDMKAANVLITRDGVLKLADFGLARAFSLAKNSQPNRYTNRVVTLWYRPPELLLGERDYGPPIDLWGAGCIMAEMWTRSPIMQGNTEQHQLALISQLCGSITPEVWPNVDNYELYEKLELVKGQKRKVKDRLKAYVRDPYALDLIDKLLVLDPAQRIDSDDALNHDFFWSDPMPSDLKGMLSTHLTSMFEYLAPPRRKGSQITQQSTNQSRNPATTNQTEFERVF
Sequence (O75909 whole entry partner): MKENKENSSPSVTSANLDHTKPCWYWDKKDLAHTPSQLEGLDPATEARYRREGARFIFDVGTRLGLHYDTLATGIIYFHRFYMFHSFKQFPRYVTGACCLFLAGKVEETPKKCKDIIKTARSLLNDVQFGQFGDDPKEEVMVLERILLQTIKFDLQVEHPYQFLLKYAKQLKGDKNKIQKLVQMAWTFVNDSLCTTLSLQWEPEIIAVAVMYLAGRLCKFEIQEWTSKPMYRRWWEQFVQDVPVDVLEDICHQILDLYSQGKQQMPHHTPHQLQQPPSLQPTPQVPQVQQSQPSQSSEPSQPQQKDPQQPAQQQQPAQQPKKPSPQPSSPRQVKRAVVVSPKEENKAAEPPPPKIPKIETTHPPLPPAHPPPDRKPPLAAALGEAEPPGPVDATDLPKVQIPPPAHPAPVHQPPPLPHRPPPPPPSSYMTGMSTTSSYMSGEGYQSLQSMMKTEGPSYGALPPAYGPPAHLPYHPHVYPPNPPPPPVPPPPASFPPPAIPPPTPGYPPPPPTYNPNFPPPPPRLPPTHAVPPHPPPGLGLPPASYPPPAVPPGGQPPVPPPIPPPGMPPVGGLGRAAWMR
method description: TR-FRET Lanthascreen Eu Kinase Binding assay
stated conditions: classifies curves by quality of fit, efficacy and number of asymptotes
Structures can show the parent of a compound that is named as a salt.
Please state the value as a number alone, without comment.

Lookup: Fill in Curve Class for record CC(C)n1nc(-c2ccc(NC(=O)Nc3cccc(C(F)(F)F)c3)cc2)c2c(N)ncnc21 [AD57 (hydrochloride)]
Found: -1.1

Lookup: Please give measured Curve Class of the following entry: O=C(Nc1nc2ccccc2n1CCN1CCOCC1)c1cccc([N+](=O)[O-])c1
Found: -1.2

Lookup: Please list Curve Class recorded for the compound O=C1Nc2ccc3ncsc3c2/C1=C/Nc1ccc([S+](=O)([O-])Nc2ccccn2)cc1
Found: -1.1

Lookup: Give Curve Class for O=C1Cc2c([nH]c3ccc(Br)cc23)-c2ccccc2N1
Found: -1.1

Lookup: Answer with reported Curve Class of Cn1cc(C2=C(c3cn(CCCSC(=N)N)c4ccccc34)C(=O)NC2=O)c2ccccc21 [Ro 31-8220 (mesylate)]
Found: -1.3

Lookup: Supply Curve Class value. Item: OCCCNc1cc(-c2ccnc(Nc3cccc(Cl)c3)n2)ccn1
Found: -1.2

Lookup: Quote Curve Class reported for CCOC(=O)c1c(/C(C#N)=C\N)c2ccc(Cl)c(Cl)c2n1C please.
Found: -1.1

Lookup: Please report the measured Curve Class for N#CCNC(=O)c1ccc(-c2ccnc(Nc3ccc(N4CCOCC4)cc3)n2)cc1
Found: -1.1

Lookup: Complete the entry with Curve Class for O=C(NC1CCNCC1)c1[nH]ncc1NC(=O)c1c(Cl)cccc1Cl
Found: 5

###

target or system: CDK9/cyclin K (Homo sapiens)
Construct: purchased Invitrogen (ThermoFisher) PV4335
method description: TR-FRET Lanthascreen Eu Kinase Binding assay
stated conditions: in %
property name: Max Resp
No unit in the answer, only the number.

Lookup: Recall the reported Max Resp of O=C1Nc2ccc3ncsc3c2/C1=C/c1c[nH]cn1 when tested on CDK9/cyclin K (Homo sapiens).
Found: -68.5

Lookup: Report value only: Max Resp, CDK9/cyclin K (Homo sapiens), CN1C/C=C/CCOc2cccc(c2)-c2ccnc(n2)Nc2cccc(c2)C1
Found: -95.8

Lookup: Param request: Max Resp | system CDK9/cyclin K (Homo sapiens) | item Nc1nc(NCCNc2ncc(-n3ccnc3)c(-c3ccc(Cl)cc3Cl)n2)ccc1[N+](=O)[O-]
Found: -80.6

Lookup: Send back CDK9/cyclin K (Homo sapiens) Max Resp of C1=C/COCc2cc(ccc2OCCN2CCCC2)Nc2nccc(n2)-c2cccc(c2)COC/1 only.
Found: -95.3

Lookup: Quote CDK9/cyclin K (Homo sapiens) Max Resp for entry CN[C@H]1CCN(C(=O)c2ccc(Nc3ncc(F)c(-c4cnc(C)n4C(C)C)n3)cc2)C1 .
Found: -96.5

Lookup: State measured Max Resp of the molecule O=C(O)c1ccc(-c2c[nH]c3ncc(-c4ccccc4)cc23)cc1C1CCCC1 with CDK9/cyclin K (Homo sapiens).
Found: -89.0

Lookup: # assay system CDK9/cyclin K (Homo sapiens): give Max Resp of COc1ccc(F)c(F)c1C(=O)c1cnc(NC2CCN([S+](C)(=O)[O-])CC2)nc1N
Found: -94.3

Lookup: Report the value of Max Resp obtained on CDK9/cyclin K (Homo sapiens) for Nc1nc(Nc2ccc(S(N)(=O)=O)cc2)nn1C(=O)c1c(F)cccc1F .
Found: -97.5

###

target or system: CDK9/cyclin K (Homo sapiens)
Construct: purchased Invitrogen (ThermoFisher) PV4335
method description: TR-FRET Lanthascreen Eu Kinase Binding assay
stated conditions: difference between highest and lowest activity across concentration range; in %
Structures can show the parent of a compound that is named as a salt.
Kind request: treat -80 as inclusive, so Efficacy at -80 or higher is condition met, anything lower is condition not met.

Lookup: Hello, I need to know if CC(C)CC(=O)Nc1[nH]nc2c1CN(C(=O)C1CCN(C)CC1)C2(C)C has measured Efficacy not below -80. Thanks!
Found: condition not met

Lookup: Efficacy >= -80 for O=C(NCCCNc1nc(Nc2cccc(NC(=O)N3CCCC3)c2)ncc1I)c1cccs1 [BX-795 hydrochloride] ?
Found: condition not met

Lookup: Is Efficacy at least -80? Consider CC(C)c1nn(-c2c(Cl)cccc2Cl)c2nc(Cc3ccc(OCCO)cc3)[nH]c(=O)c12
Found: condition met

Lookup: Hi team, for Cn1cc(C2=C(c3cn(CCCSC(=N)N)c4ccccc34)C(=O)NC2=O)c2ccccc21 [Ro 31-8220 (mesylate)] , is the recorded Efficacy at or above -80?
Found: condition met

Lookup: Evaluate NC(=O)c1ccccc1Nc1ccnc(Nc2cccc(O)c2)n1 : Efficacy at minimum -80?
Found: condition not met

Lookup: I'd appreciate it if you could say whether CC[C@H](CO)Nc1nc(NCc2ccccc2)c2ncn(C(C)C)c2n1 has Efficacy at least equal to -80.
Found: condition not met

Lookup: Hello, I need to know if C[C@@H](Oc1ccc2[nH]nc(/C=C/c3cnn(CCO)c3)c2c1)c1c(Cl)cncc1Cl has measured Efficacy not below -80. Thanks!
Found: condition not met

Lookup: Does COCCOc1ccc2c(c1)ncn2-c1ccc2cccc(N3CCC(N)CC3)c2n1 have a reported Efficacy of at least -80?
Found: condition not met

Lookup: Does the compound CC(C)c1cc(CNc2nc(Nc3cc(C4CC4)[nH]n3)cc(N3CCN(C)CC3)n2)on1 have recorded Efficacy that is -80 or more?
Found: condition not met

Lookup: # bool: Efficacy of N#Cc1ccnc(Nc2cc(C3CCN(C4COC4)CC3)cc(N3CCC(F)(F)C3)n2)c1 >= -80
Found: condition met

Lookup: Does Efficacy meet or surpass -80 for Cc1ccc([N+](=O)[O-])cc1[S+](=O)([O-])N(C)/N=C/c1cnc2ccc(Br)cn12 ?
Found: condition met

Lookup: Given the entry COc1ccc(F)cc1-c1cc(NC(=O)[C@@H]2CCCNC2)ncc1Cl , answer whether its Efficacy meets or surpasses -80.
Found: condition met

###

target or system: CDK9/cyclin K (Homo sapiens)
Construct: purchased Invitrogen (ThermoFisher) PV4335
method description: TR-FRET Lanthascreen Eu Kinase Binding assay
stated conditions: classifies curves by quality of fit, efficacy and number of asymptotes
Can you tell me Curve Class for the items I'm about to list?
# answer = number (no unit)

Lookup: Find the measured Curve Class of CC[C@H](CO)Nc1nc(NCc2ccccc2)c2ncn(C(C)C)c2n1 and report it.
Found: -1.1

Lookup: Output Curve Class of COc1ccc2c(NC(=O)Nc3cccc(C(F)(F)F)n3)ccnc2c1
Found: -1.4

Lookup: Look up Curve Class of CCS(=O)(=O)c1cccc(-c2cc(C(=O)NC3CCN(C)CC3)c(C)c3[nH]c4ncc(C)cc4c23)c1 and report it.
Found: -1.1

Lookup: Respond only with Curve Class recorded for C[S+](=O)([O-])N1CCC(NC(=O)c2[nH]ncc2NC(=O)c2c(Cl)cccc2Cl)CC1
Found: -1.2

Lookup: Give Curve Class for CN[C@H]1CCN(C(=O)c2ccc(Nc3ncc(F)c(-c4cnc(C)n4C(C)C)n3)cc2)C1
Found: -1.3

Lookup: Consider the compound CC(C)CC(=O)Nc1[nH]nc2c1CN(C(=O)C1CCN(C)CC1)C2(C)C . State its measured Curve Class.
Found: -1.1

Lookup: Let me know recorded Curve Class for CN1CCN(Cc2ccc(Nc3ncc(Cl)c(Nc4ccccc4S(=O)(=O)N(C)C)n3)cc2)CC1 , thanks.
Found: -1.2

Lookup: Return value of Curve Class for input Cc1ccc([N+](=O)[O-])cc1[S+](=O)([O-])N(C)/N=C\c1cnc2ccc(Br)cn12 , no commentary.
Found: 5

###

target or system: CDK9/cyclin K (Homo sapiens, UniProt P50750)
Construct: purchased Invitrogen (ThermoFisher) PV4335
method description: TR-FRET Lanthascreen Eu Kinase Binding assay
stated conditions: in %
From the text: The TR-FRET Lanthascreen Eu Kinase Binding assay for CDK9/cyclin K was purchased from ThermoFisher and performed as per manufacturer instructions.
property name: Max Resp

Lookup: Using the record for CN[C@@H]1C[C@H]2O[C@@](C)([C@@H]1OC)n1c3ccccc3c3c4c(c5c6ccccc6n2c5c31)C(=O)N[C@H]4O , state its measured Max Resp.
Found: -93.0

Lookup: Provide only the value of recorded Max Resp for NS(=O)(=O)c1ccc(NN=C2C(=O)Nc3ccc(Br)cc32)cc1
Found: -64.7

Lookup: Supply recorded Max Resp for O=C1NCCSc2c1sc1ccc(O)cc21 here.
Found: -91.1

Lookup: Return the recorded Max Resp value; entry: O=C1Nc2ccccc2/C1=C1/Nc2ccccc2/C1=N\OCCC(O)CO (centres unmarked)
Found: -81.2

Lookup: Complete the entry with Max Resp for Oc1ccc(-c2ccc(-c3cc(Nc4cccc(CNC5CC5)c4)[nH]n3)cc2)c(O)c1
Found: -94.1

Lookup: Quick one: give measured Max Resp for CN(C)c1nc2c(Br)c(Br)c(Br)c(Br)c2[nH]1
Found: -94.6

Lookup: Identify measured Max Resp associated with N[C@H]1CC[C@H](Nc2nc(Nc3ccc(C(=O)N4CCCCC4)cc3)c3ncn(-c4cccc(F)c4)c3n2)CC1
Found: -96.3

Lookup: Report Max Resp, nothing else, for this compound: CC[C@H](CO)Nc1nc(NCc2ccccc2)c2ncn(C(C)C)c2n1
Found: -97.7
